- METHOD_DESCRIPTION: yeast display, Sf9 membrane polyspecificity reagent, FACS + sequencing; frameworks hold sequencing errors
PARAMETER_MEASURED: polyreactivity (PSR sort gate)

>  <SEQ_STRING>
QVQLVESGGGLVKAGGSLRLSCADSGSIFWYYTMGRYRQAPGKEREFVAAISWSGGGSTYYADSVKGRFTISRENAKYTVYLQMNSLKPEDTAVYYCNGDWTSYGFVTRLDYWGHGTQVTVSS

>  <PARAMETER_MEASURED>
polyreactivity (PSR sort gate)

>  <READING>
low polyreactivity

$$$$
>  <SEQ_STRING>
QVQLVEAGGGFVQAGGSLRLSCAASGFTFDYYAMGSYRQAHGKERELVAAITLNGGSTYYADSVKGRFTISRDNAKNTVYLQMNSLKPEDPAVYYCAADGSGYYDWYYYWGHGTQVTVSS

>  <PARAMETER_MEASURED>
polyreactivity (PSR sort gate)

>  <READING>
low polyreactivity

$$$$
>  <SEQ_STRING>
QVQLVESGGGLVQAGGSLRLSCAASGITLRRNAMGWYRQAPGKERELVARISTTGGSTYYADSVKGRFTISRDNAKNTVYLQMNSLKPEDTAVYYCAARAPLGFWHYDYWGQGTQVTVSS

>  <PARAMETER_MEASURED>
polyreactivity (PSR sort gate)

>  <READING>
high polyreactivity

$$$$
>  <SEQ_STRING>
QVQLVESGGGLVQAGGSLGLSCAASGRMFGYYTLGWYRQAPGKERELVAAITSSGGRTYYADSVKGRFTISRDYAKNTVYLQMNSLKPEDTAVYYCAADVEWTSRGSYYRYYYWGQGTQVTVSS

>  <PARAMETER_MEASURED>
polyreactivity (PSR sort gate)

>  <READING>
low polyreactivity

$$$$
>  <SEQ_STRING>
QVQLVESGGGLVQAGGSLRLSCAASGRTFYYNAMGWYRQAPGKERELVAAISGRGGSTYYADSVKGRFTISRDNAKNTVYLQMNSLKPEDTAVYYCNAVRYKYTGRFGYWGQGTQVTVSS

>  <PARAMETER_MEASURED>
polyreactivity (PSR sort gate)

>  <READING>
high polyreactivity

$$$$
>  <SEQ_STRING>
QVQLVESGGGLVHAGGSLRLSCAASGFTFRWYAMGWYRQAPGKERELVARIRGGGSTNYADSVKGRFTISRDNAKNTVYLQMNSLKPEDTAVYYCNTAYPWPPVKYDYWGQGTQVTVSS

>  <PARAMETER_MEASURED>
polyreactivity (PSR sort gate)

>  <READING>
high polyreactivity

$$$$
>  <SEQ_STRING>
QVQLVESGGGLVQAGGSLRLSCAASGSILWQYAMGWYRQAPGKERELVAAISTGGSTYYAESVKGRFTISRDNAKNTVYLQMNSLKPEDTAVYYCAAYVDYSVYFGGGYWGQGTQVTVSS

>  <PARAMETER_MEASURED>
polyreactivity (PSR sort gate)

>  <READING>
low polyreactivity

$$$$
>  <SEQ_STRING>
QVQLVESGGGLVQAGGSLRLSCAASGSTFKFYAMGWYRQAPGKERELVAAISGSSGSTYYADSVKGRFTISRDNAKNTVYLQMNSLKPEDTAVYYCNTQYSRYYTRYSAYDYWGQGTQVTVSS

>  <PARAMETER_MEASURED>
polyreactivity (PSR sort gate)

>  <READING>
low polyreactivity

$$$$
>  <SEQ_STRING>
QVQLVESGGGLVQAGGSLRLSCAASGSTFPYNTMGWYRQAPGKEREFVAAITGDGGTTYYADSVKGRFTISRDNAKNTVYLQMNSLKPEDTAVYYCAVPYPAEGYGGDYWGQGSQVTVSS

>  <PARAMETER_MEASURED>
polyreactivity (PSR sort gate)

>  <READING>
low polyreactivity

$$$$
>  <SEQ_STRING>
QVQLVESGGGLVQAGRILRISCAASGFKYAMGWYRQEPGKERELVAAISSGGITSYADSVKGRFTISRDNAKNTVYLQMNSLKPEDTAVYYCAAALRRRRAYFDYWGQGTQVTVSS

>  <PARAMETER_MEASURED>
polyreactivity (PSR sort gate)

>  <READING>
high polyreactivity

$$$$
>  <SEQ_STRING>
QVQLVESGGGLVQAGGSLRLSCAASGYTFAGNAMGWYRQAPGKERELVAAISRSGGRTYYADSVKGRFTISRDNAKNTVYLQMNSLKPEDTAVYYCAAYGYKYDYWGQGTQVTVSS

>  <PARAMETER_MEASURED>
polyreactivity (PSR sort gate)

>  <READING>
high polyreactivity

$$$$

* * *

- METHOD_DESCRIPTION: yeast display, Sf9 membrane polyspecificity reagent, FACS + sequencing; frameworks hold sequencing errors
PARAMETER_MEASURED: polyreactivity (PSR sort gate)

>  <SEQ_STRING>
QVQLVESGGGVGQAGGSLRLSCAASGSTFDRYTMGWYRQAPGKERELVAAISISGGSTYYADSVKGRFTISRDNAKNTVYLQMNSLKPEVTEVYYCAARLDTVTDYYYWGQGTQVTVSS

>  <PARAMETER_MEASURED>
polyreactivity (PSR sort gate)

>  <READING>
low polyreactivity

$$$$
>  <SEQ_STRING>
QVQLVESGGGLVQAGGSLRLSCAASGITFATNAMGWYRQAPGKERDLVAGITSGGSTYYADSVKGRFTISRDNAKNTVYLQMNSLKPEDTAVYYCAKRYHYWYGTGYDYWGQGTQVTVSS

>  <PARAMETER_MEASURED>
polyreactivity (PSR sort gate)

>  <READING>
low polyreactivity

$$$$

* * *

- METHOD_DESCRIPTION: yeast display, Sf9 membrane polyspecificity reagent, FACS + sequencing; frameworks hold sequencing errors

>  <SEQ_STRING>
QVQLVESGGGLVQAGGSLRLSCAASGNIFFSNAMGWYRQAPGKERELVASISQSGGSTYYADSVKGRFTISRDNAKNTVYLQMNSLKPEDTAVYYCAATQVRRGPAWGRDYWGQGTQVTVSS

>  <polyreactivity (PSR sort gate)>
low polyreactivity

$$$$
>  <SEQ_STRING>
QVQLVESGGGLVQAGGSLRLSCAASGRTVGSYVMGWYRHAPVKERELVATISRRGGTTYYADSVKARFTISRDNAKNTVYLQMNSLKPEDTAVYYCNRVIPLASYGYGYWGQGTQVTVSS

>  <polyreactivity (PSR sort gate)>
high polyreactivity

$$$$
>  <SEQ_STRING>
QVQLVESGGGLVQAGGSLRLSCAASGSIYRYAMGWYRQAPGKEREFVAAITGGSGSTYYADSVKGRFTISRDNAKNTVYLQMNSLKPEDTAVYYCAASIWRGLTPLLIGFDYWGQGTQVTVSS

>  <polyreactivity (PSR sort gate)>
high polyreactivity

$$$$
>  <SEQ_STRING>
QVQLVESGGGLVQAGGSLRLSCADSGSIFRYNAMGWSRQAPGKERELVAAISGSGGSTYYADSVKGRFTISRDNAKNTVYLQRNSLKPEDTAVYYCNTRVYHYHYSYYPGGYWGQGTQVTVSS

>  <polyreactivity (PSR sort gate)>
high polyreactivity

$$$$
>  <SEQ_STRING>
QVQLVESGGGLVKEGGSLRLSCAASGSIYYENTMGWYRQAPGKERELVASISCGGSTYADSVKGRFTISRDNAKNSVYLQMYSLKAEDSAVYYCNADSSTEYDYWGQGTQVTVSS

>  <polyreactivity (PSR sort gate)>
low polyreactivity

$$$$
>  <SEQ_STRING>
QVQLVESGGGLVQAGGSLRLSCAASGRTFVRYAMGWYRQAPGKERELVAAISRTGGTTYYADSVKGRFTISRDNAKNTVYLQMNSLKPVDTAVYYCNADPFYKYGYWGQGTQVTVSS

>  <polyreactivity (PSR sort gate)>
high polyreactivity

$$$$
>  <SEQ_STRING>
QVQLVESGGGLVQAGGSLRLSCAASGSTFSYYTMGWYRQAPGKERELVAGISYSGGRTYYADSVKGRFTSSRDKAKNTVYLQMNSLKPEDTAVYYCAKVSWRRGAFYYWGQGTQVTVSS

>  <polyreactivity (PSR sort gate)>
high polyreactivity

$$$$
>  <SEQ_STRING>
QDQLVESGGGLVQAGGSLRLICAASGYIFVYNAMGWYRQTPWKERELVAAITDGGGSTYADSVKGRFTISRDNAKNSVYLQMNSLKPEDTAVYYCSARYSDTTWYVLYYYWGQGTQVTVSS

>  <polyreactivity (PSR sort gate)>
low polyreactivity

$$$$
>  <SEQ_STRING>
QVQLVESGGCLVQAGGSLRLSCAASGSTFIDYAMGWYRQAPGKERELVAAITNGGNTKYADSVKGRFTISRDNAKNTVYLQMNSLKPEDTAVYYCAREPSIFTPSYDYWGQGTQVTVSS

>  <polyreactivity (PSR sort gate)>
low polyreactivity

$$$$
>  <SEQ_STRING>
QVQLVESGGGLVQAGGSLRLSCAASGSTFWGYAMGWYRQAPGKERELVAAINWIGGSDTFYADSVKGRFTISRDNAKNTVYLQMNSLKPEDTAVYYCAATYYNLPYSWGYDYWGQGTQVTVSS

>  <polyreactivity (PSR sort gate)>
low polyreactivity

$$$$
>  <SEQ_STRING>
QVQLVESGGGLVQAGGSLRLSCDASGSTFYPNAMGWYRQPPGKERELVAAITDSVCTTNYADSVKGRFTISRDNAKNTVYLQMNSLKPEDTAVYYCAKVKYYWNGYRYYYWGQGTQVTVSS

>  <polyreactivity (PSR sort gate)>
low polyreactivity

$$$$

Values were extracted from the nanobody polyreactivity screen of Harvey et al. (2022).
